protocolNotes: Lipophilicity, log P of the compound
Format: physicochemical
particulars: octanol/water; read-out: logP
Values of logP strictly less than 3 map to class 1, and values of at least 3 map to class 0.

compound="CC(=O)c1ccc(S(=O)(=O)NC(=O)NC2CCCCC2)cc1 [ACETOHEXAMIDE]" labelclass="class 1"
compound=O=C(O)CCc1nc(-c2ccccc2)c(-c2ccccc2)o1 labelclass="class 0"

Below 3 on logP? Entry "Cc1ccc(C(=O)c2ccc(CC(=O)O)n2C)cc1"
class 1

Then O=C(c1ccccc1)c1ccc2n1CCC2C(=O)O (stereo unspecified) ?
class 1

Please do the same for "COc1ccc2c(c1)c(CC(=O)O)c(C)n2C(=O)c1ccc(Cl)cc1" as well.
class 0
